Measurement Target: T1, rat α-CGRP (Rattus norvegicus, UniProt P01256)
T1 construct: rat α (1-37); host or cells: synthetic peptide
T1 sequence (P01256 83-119 limits assumed): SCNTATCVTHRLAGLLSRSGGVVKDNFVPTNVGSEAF
Experimental Protocol: Biacore affinity of antibody G1 Fab and variants to rat α-CGRP
Assay type: binding
Experimental Context: 37° C., Fab, screening mode unless underlined
Protocol: Biacore assay for affinity determination. […] All Biacore assays were conducted in HBS-EP running buffer (10 mM HEPES pH 7.4, 150 mM NaCl, 3 mM EDTA, 0.005% v/v polysorbate P20). […] High-resolution analysis of binding interactions with extremely slow offrates. […] The association rate constant (kon) was determined by injecting a 2-fold titration series (in duplicate) spanning 550 nM-1 nM for 30 seconds at 100 μL/min and allowing only a 30 second dissociation phase. […]
Metric: α-rat koff (s⁻¹)
// note: answer is a bare numeric in s⁻¹

Noted for M67: G1 variant: L1 R28N,T30G; L2 L56I; H2 E54K,A57F; HC-FW3 L99T,A100V (antibody, V domains shown) VH: EVQLVESGGGLVQPGGSLRLSCAASGFTFSNYWISWVRQAPGKGLEWVAEIRSKSDFSATHYAEAVKGRFTISRDNAKNSLYLQMNSLRAEDTAVYYCTVYFDYGLAIQNYWGQGTLVTVSS VL: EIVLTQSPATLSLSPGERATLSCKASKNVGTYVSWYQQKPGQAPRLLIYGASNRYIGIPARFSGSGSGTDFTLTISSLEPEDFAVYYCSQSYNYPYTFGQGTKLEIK : its α-rat koff reads 0.00171
